Molecular target: human PD-L1 (human) (UniProt Q9NZQ7)
Sequence (Q9NZQ7 19-290): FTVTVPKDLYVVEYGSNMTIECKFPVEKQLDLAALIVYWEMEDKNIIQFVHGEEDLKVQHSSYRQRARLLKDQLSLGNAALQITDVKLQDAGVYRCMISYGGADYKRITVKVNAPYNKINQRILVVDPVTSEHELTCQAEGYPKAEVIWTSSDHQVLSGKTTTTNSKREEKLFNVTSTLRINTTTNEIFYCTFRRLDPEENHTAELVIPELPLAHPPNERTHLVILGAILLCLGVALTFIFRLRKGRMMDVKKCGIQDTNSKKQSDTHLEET
Assay: flow cytometry, CHO/huPD-L1 cells; vs WT CD80 ECD-Fc (Abcam)
measured.property: Fold change to WT CD80 (fold)
One number for each entry, in fold.

1. variant CD80 IgV-Fc M47V/N48K/V68M (Fc fusion) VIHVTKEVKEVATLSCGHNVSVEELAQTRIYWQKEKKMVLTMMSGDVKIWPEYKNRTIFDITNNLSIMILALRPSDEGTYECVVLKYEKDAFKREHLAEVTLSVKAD | 113
2. variant CD80 IgV-Fc E35D/M47L/V68M (Fc fusion) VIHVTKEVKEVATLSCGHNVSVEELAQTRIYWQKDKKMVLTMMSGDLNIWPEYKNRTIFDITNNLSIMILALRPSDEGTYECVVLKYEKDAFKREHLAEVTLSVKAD | 218
3. variant CD80 IgV-Fc E35D/M47V (Fc fusion) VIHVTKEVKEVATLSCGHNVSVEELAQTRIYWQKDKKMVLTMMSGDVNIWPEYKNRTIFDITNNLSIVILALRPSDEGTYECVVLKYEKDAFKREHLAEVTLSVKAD | 53.1

Please find the next binder below.
query: Which Fold change to WT CD80 value is on record for variant CD80 IgV-Fc E35D/D46V/M47V/V68M/L85Q (Fc fusion) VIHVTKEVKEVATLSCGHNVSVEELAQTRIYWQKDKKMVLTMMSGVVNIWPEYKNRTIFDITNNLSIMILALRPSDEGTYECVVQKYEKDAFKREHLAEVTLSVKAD ?
result: 205
